# maps each entry to its pKd
# target under test: T1, human LRRC33-proTGFβ1 complex (human, UniProt P01137 30-390; Q86YC3 19-650)
# T1 construct: also called hLRRC33-proTGFβ1; hLRRC33
# T1 sequence (P01137 30-390 limits assumed, chain 1 of 2): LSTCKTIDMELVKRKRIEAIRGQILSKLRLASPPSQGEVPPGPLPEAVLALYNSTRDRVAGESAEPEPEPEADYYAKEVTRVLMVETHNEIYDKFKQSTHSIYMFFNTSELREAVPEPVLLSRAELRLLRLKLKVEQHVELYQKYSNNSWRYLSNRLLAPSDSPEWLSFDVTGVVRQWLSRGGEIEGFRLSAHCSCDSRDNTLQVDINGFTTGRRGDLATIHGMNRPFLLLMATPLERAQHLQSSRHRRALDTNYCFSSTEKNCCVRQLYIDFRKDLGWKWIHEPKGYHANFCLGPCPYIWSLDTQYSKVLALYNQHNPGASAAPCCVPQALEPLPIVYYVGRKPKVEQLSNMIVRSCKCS
# T1 sequence (Q86YC3 other isoform, or with tags, fused parts or gaps limits assumed, chain 2 of 2): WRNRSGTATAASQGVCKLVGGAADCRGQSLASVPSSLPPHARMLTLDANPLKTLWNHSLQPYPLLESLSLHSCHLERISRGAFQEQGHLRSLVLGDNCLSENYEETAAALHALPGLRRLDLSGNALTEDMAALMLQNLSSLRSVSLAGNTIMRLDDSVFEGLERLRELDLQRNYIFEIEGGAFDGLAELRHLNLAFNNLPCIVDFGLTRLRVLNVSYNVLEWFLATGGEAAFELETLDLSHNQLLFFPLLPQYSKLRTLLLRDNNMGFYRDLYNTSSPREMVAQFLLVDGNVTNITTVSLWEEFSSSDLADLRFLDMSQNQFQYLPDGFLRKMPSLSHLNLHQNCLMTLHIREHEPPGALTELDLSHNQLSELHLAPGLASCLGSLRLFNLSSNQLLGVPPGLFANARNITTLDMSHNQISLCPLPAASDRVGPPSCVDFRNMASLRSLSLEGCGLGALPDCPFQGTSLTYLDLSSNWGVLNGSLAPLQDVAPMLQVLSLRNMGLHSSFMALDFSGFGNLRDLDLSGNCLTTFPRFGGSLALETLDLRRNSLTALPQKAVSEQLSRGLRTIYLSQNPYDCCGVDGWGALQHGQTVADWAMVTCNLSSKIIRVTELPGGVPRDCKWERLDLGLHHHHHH
# test: MSD-SET, hIgG4
Keep in mind that pKd stands for -log10 of concentration in molar terms.

A selection of reference data follows.
{"binder": "Ab33 (antibody, IgG4, V domains shown) VH: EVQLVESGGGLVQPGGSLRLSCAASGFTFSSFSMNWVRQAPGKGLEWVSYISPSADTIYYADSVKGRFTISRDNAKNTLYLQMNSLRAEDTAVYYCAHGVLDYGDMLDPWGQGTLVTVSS VL: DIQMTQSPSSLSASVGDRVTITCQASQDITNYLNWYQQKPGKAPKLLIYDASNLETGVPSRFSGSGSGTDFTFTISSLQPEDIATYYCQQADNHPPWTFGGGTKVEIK", "readout label": "pKd", "recorded value": 10.34}
{"binder": "Ab30 (antibody, IgG4, V domains shown) VH: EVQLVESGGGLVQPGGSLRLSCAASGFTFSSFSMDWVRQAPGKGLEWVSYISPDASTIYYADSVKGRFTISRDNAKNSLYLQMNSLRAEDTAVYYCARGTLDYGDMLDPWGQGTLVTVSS VL: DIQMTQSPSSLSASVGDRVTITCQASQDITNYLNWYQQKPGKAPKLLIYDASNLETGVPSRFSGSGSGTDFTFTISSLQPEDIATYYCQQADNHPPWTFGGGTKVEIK", "readout label": "pKd", "recorded value": 9.85}

Alright, here's another binder for you.
pKd measured on Ab29 (antibody, IgG4, V domains shown) VH: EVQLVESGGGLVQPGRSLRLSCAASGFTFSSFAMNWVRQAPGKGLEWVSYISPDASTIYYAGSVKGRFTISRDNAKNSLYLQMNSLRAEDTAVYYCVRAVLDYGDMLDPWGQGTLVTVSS VL: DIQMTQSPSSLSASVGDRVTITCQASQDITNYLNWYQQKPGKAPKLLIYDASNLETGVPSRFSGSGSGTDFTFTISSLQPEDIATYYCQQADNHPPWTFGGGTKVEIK = 10.37
